pIC50: −log10 of the molar value.
Compiled from multiple publications: pIC50 readings for human IKK-β (Homo sapiens, UniProt O14920).

[
  {
    "compound": "N#Cc1c(C2CCCNC2)cc(-c2c(O)cccc2OCc2ccc(-c3ccccc3)cc2)nc1N (stereo not shown)",
    "pIC50": "> 6.30"
  },
  {
    "compound": "NC(=O)Nc1sc(-c2ccc(N(CC[C@H](N)C(=O)O)Cc3ccccc3)cc2)cc1C(N)=O",
    "pIC50": "> 6.00"
  },
  {
    "compound": "O=c1[nH]c2nc(-c3c(O)cccc3OCC3CC3)cc(C3CCCNC3)c2cc1S(=O)(=O)c1ccccc1 (stereo not shown)",
    "pIC50": "> 6.30"
  },
  {
    "compound": "NC(=O)Nc1sc(-c2ccc(OCC[C@H](NC3CCCCC3)C(=O)OC3CCCC3)cc2)cc1C(N)=O",
    "pIC50": "> 6.00"
  },
  {
    "compound": "NC(=O)Nc1sc(-c2ccc(OCC[C@H](N)C(=O)O)cc2Cl)cc1C(N)=O",
    "pIC50": "> 6.00"
  },
  {
    "compound": "N#Cc1c(-c2cccc(NC(=O)CN3CCN(CCO)CC3)c2)cc(-c2ccccc2O)nc1N",
    "pIC50": "5.70 to 6.30"
  },
  {
    "compound": "CCCc1cc(N2CCC(NCC(O)c3ccc(-c4ccccc4)cc3)CC2)nc2sc(C(N)=O)c(N)c12 (stereo not shown)",
    "pIC50": "> 6.00"
  },
  {
    "compound": "O=C(NCc1ccccc1)c1cc2c(C3CCCNC3)cc(-c3c(O)cccc3OCC3CC3)nc2[nH]c1=O (stereo not shown)",
    "pIC50": "> 6.30"
  },
  {
    "compound": "CN(C)C(=O)N1Cc2c(C3CCCNC3)cc(-c3c(O)cccc3OCC3CC3)nc2NC1=O (stereo not shown)",
    "pIC50": "> 6.30"
  },
  {
    "compound": "CCCC[C@H](N)c1cc(-c2ccccc2O)nc(N)c1C#N",
    "pIC50": "> 6.30"
  },
  {
    "compound": "O=C(NC1CCCC1)c1cc2c(C3CCCNC3)cc(-c3c(O)cccc3OCC3CC3)nc2[nH]c1=O (stereo not shown)",
    "pIC50": "> 6.30"
  },
  {
    "compound": "CCOc1cccc(O)c1-c1cc(C2CCNCC2)c(C#N)c(N)n1",
    "pIC50": "> 6.30"
  },
  {
    "compound": "NC(=O)Nc1sc(-c2ccc(/C=C/C[C@@H](N)C(=O)O)cc2)cc1C(N)=O",
    "pIC50": "> 6.00"
  },
  {
    "compound": "CC(C)C[C@H](NCCCCCOc1ccc(-c2cc(C(N)=O)c(NC(N)=O)s2)cc1)C(=O)O",
    "pIC50": "> 6.00"
  },
  {
    "compound": "CN(C)c1ccc(-c2cc(-c3ccccc3O)nc(N)c2C#N)cc1NC(=O)CCN",
    "pIC50": "> 6.30"
  },
  {
    "compound": "CCCc1cc(N2CCC(NCC(O)c3ccc(-c4ccncc4)cc3)CC2)nc2sc(C(N)=O)c(N)c12 (stereo not shown)",
    "pIC50": "> 6.00"
  }
]
